Item-by-item account of inhibition in vivo at 10 mg/kg
Test system: Male Sprague-Dawley rats
Protocol: Rat Carrageenan-induced Analgesia Test
Format: in vivo
Particulars: po, 3 h, read-out: ANALGESIA % Inhibition @ 10mg/kg body weight, rats dosed orally, hyperalgesic foot withdrawal, thermal stimulation three hours after carrageenan
Your answer is read as %, so omit the unit and give the number.

[[record]]
molecule = "CS(=O)(=O)c1ccc(C2=C(c3ccc(C(F)(F)F)cc3)CC3(CC3)C2)cc1"
test_result = 9


May I ask what inhibition in vivo at 10 mg/kg has been recorded for "COc1ccc(C2=C(c3ccc(S(N)(=O)=O)cc3)CC3(CC3)C2)cc1F" ?
17

For the compound shown here, "COc1ccc(C2=C(c3ccc(S(N)(=O)=O)cc3)CC3(CC3)C2)cc1Cl" , give the reported inhibition in vivo at 10 mg/kg.
18

Param item = "CS(=O)(=O)c1ccc(C2=C(c3ccc(F)c(Cl)c3)CC3(CC3)C2)cc1" ; retrieve measured inhibition in vivo at 10 mg/kg.
10
